Where do these numbers come from? They come from ChEMBL document CHEMBL1136822.

ASSAY_NAME: Half life period (10 mg/kg) was determined in dog
Assay type: ADME, organism-based, Canis lupus familiaris
ASSAY_CONDITIONS: in vivo
OBSERVATION_TYPE: half-life (h)
Report only the number, with the unit h understood.

{"CPD_SMILES": "Nc1n[nH]c2ccc(CN3C(=O)N(Cc4ccccc4)[C@H](Cc4ccccc4)[C@H](O)[C@@H](O)[C@H]3Cc3ccccc3)cc12", "OBSERVATION_TYPE": "half-life", "REPORTED_RESULT": 3.5}

Shift focus to the following entry.
Recorded half-life for Cc1ccc(C[C@@H]2[C@H](O)[C@@H](O)[C@@H](Cc3ccc(C)cc3)N(Cc3ccc4[nH]nc(N)c4c3)C(=O)N2Cc2ccccc2)cc1 , please?
3.9

###

Listing of recorded concentration at 8 h by entry.
ASSAY_NAME: 8 hour trough Blood level in dog was measured after administration of compound
Type: ADME, organism-based, Canis lupus familiaris
ASSAY_CONDITIONS: read-out: C 8 h
Report only the number, with the unit nM understood.

Use the examples below as a reference point.
{"CPD_SMILES": "Cc1cccc(C[C@@H]2[C@H](O)[C@@H](O)[C@@H](Cc3cccc(C)c3)N(Cc3ccc4[nH]nc(N)c4c3)C(=O)N2Cc2ccccc2)c1", "concentration at 8 h [nM]": 350}
{"CPD_SMILES": "Cc1ccc(C[C@@H]2[C@H](O)[C@@H](O)[C@@H](Cc3ccc(C)cc3)N(Cc3ccc4[nH]nc(N)c4c3)C(=O)N2Cc2ccccc2)cc1", "concentration at 8 h [nM]": 350}
{"CPD_SMILES": "CCCCN1C(=O)N(Cc2ccc3[nH]nc(N)c3c2)[C@H](Cc2ccc(C)cc2)[C@H](O)[C@@H](O)[C@H]1Cc1ccc(C)cc1", "concentration at 8 h [nM]": 70}
{"CPD_SMILES": "Nc1n[nH]c2ccc(CN3C(=O)N(Cc4ccccc4)[C@H](Cc4ccccc4)[C@H](O)[C@@H](O)[C@H]3Cc3ccccc3)cc12", "concentration at 8 h [nM]": 2800}

Shift focus to the following entry.
Recorded concentration at 8 h for CCCCN1C(=O)N(Cc2ccc3[nH]nc(N)c3c2)[C@H](Cc2ccccc2)[C@H](O)[C@@H](O)[C@H]1Cc1ccccc1 , please?
7200

###

ASSAY_NAME: Oral bioavailability in dog (dose 10 mg/kg)
Format: ADME, organism-based, Canis lupus familiaris
ASSAY_CONDITIONS: in vivo
OBSERVATION_TYPE: bioavailability
The answer consists of two parts: a number and, after it, its unit.

Use the examples below as a reference point.
{"CPD_SMILES": "CCCCN1C(=O)N(Cc2ccc3[nH]nc(N)c3c2)[C@H](Cc2ccc(C)cc2)[C@H](O)[C@@H](O)[C@H]1Cc1ccc(C)cc1", "REPORTED_RESULT": "23%"}
{"CPD_SMILES": "Nc1n[nH]c2ccc(CN3C(=O)N(Cc4ccccc4)[C@H](Cc4ccccc4)[C@H](O)[C@@H](O)[C@H]3Cc3ccccc3)cc12", "REPORTED_RESULT": "60%"}
{"CPD_SMILES": "CCCCN1C(=O)N(Cc2ccc3[nH]nc(N)c3c2)[C@H](Cc2ccccc2)[C@H](O)[C@@H](O)[C@H]1Cc1ccccc1", "REPORTED_RESULT": "57%"}
{"CPD_SMILES": "Cc1ccc(C[C@@H]2[C@H](O)[C@@H](O)[C@@H](Cc3ccc(C)cc3)N(Cc3ccc4[nH]nc(N)c4c3)C(=O)N2Cc2ccccc2)cc1", "REPORTED_RESULT": "29%"}

Shift focus to the following entry.
Recorded bioavailability for Cc1cccc(C[C@@H]2[C@H](O)[C@@H](O)[C@@H](Cc3cccc(C)c3)N(Cc3ccc4[nH]nc(N)c4c3)C(=O)N2Cc2ccccc2)c1 , please?
20%

###

ASSAY_NAME: Pharmacokinetic activity (Cmax) (10 mg/kg) was determined in dog
Assay type: ADME, organism-based, Canis lupus familiaris
Set-up: dose 10 mg/kg
ASSAY_CONDITIONS: in vivo
OBSERVATION_TYPE: Cmax (µM)
Report only the number, with the unit µM understood.

{"CPD_SMILES": "Cc1ccc(C[C@@H]2[C@H](O)[C@@H](O)[C@@H](Cc3ccc(C)cc3)N(Cc3ccc4[nH]nc(N)c4c3)C(=O)N2Cc2ccccc2)cc1", "REPORTED_RESULT": 3.6}

Shift focus to the following entry.
Recorded Cmax for Cc1cccc(C[C@@H]2[C@H](O)[C@@H](O)[C@@H](Cc3cccc(C)c3)N(Cc3ccc4[nH]nc(N)c4c3)C(=O)N2Cc2ccccc2)c1 , please?
3.6

###

ASSAY_NAME: Half life period in dog
Format: ADME, organism-based, Canis lupus familiaris
ASSAY_CONDITIONS: in vivo
OBSERVATION_TYPE: half-life (h)
Report only the number, with the unit h understood.

Use the examples below as a reference point.
{"CPD_SMILES": "Cc1cccc(C[C@@H]2[C@H](O)[C@@H](O)[C@@H](Cc3cccc(C)c3)N(Cc3ccc4[nH]nc(N)c4c3)C(=O)N2Cc2ccccc2)c1", "UNIT_NAME": "h", "half-life": 3.9}
{"CPD_SMILES": "CCCCN1C(=O)N(Cc2ccc3[nH]nc(N)c3c2)[C@H](Cc2ccc(C)cc2)[C@H](O)[C@@H](O)[C@H]1Cc1ccc(C)cc1", "UNIT_NAME": "h", "half-life": 1.6}

Shift focus to the following entry.
Recorded half-life for CCCCN1C(=O)N(Cc2ccc3[nH]nc(N)c3c2)[C@H](Cc2ccccc2)[C@H](O)[C@@H](O)[C@H]1Cc1ccccc1 , please?
7.7

###

Listing of recorded IC90 by entry.
Species: Homo sapiens
ASSAY_NAME: Protein binding adjusted IC90s for the I84V mutant was determined
Format: functional
Report only the number, with the unit µM understood.

Use the examples below as a reference point.
{"CPD_SMILES": "CCCCN1C(=O)N(Cc2ccc3[nH]nc(N)c3c2)[C@H](Cc2ccc(CC)cc2)[C@H](O)[C@@H](O)[C@H]1Cc1ccc(CC)cc1", "OBSERVATION_TYPE": "IC90", "UNIT_NAME": "µM", "REPORTED_RESULT": 0.22}
{"CPD_SMILES": "Cc1cccc(C[C@@H]2[C@H](O)[C@@H](O)[C@@H](Cc3cccc(C)c3)N(Cc3ccc4[nH]nc(N)c4c3)C(=O)N2Cc2ccccc2)c1", "OBSERVATION_TYPE": "IC90", "UNIT_NAME": "µM", "REPORTED_RESULT": 0.3}
{"CPD_SMILES": "Cc1ccc(C[C@@H]2[C@H](O)[C@@H](O)[C@@H](Cc3ccc(C)cc3)N(Cc3ccc4[nH]nc(N)c4c3)C(=O)N2Cc2ccccc2)cc1", "OBSERVATION_TYPE": "IC90", "UNIT_NAME": "µM", "REPORTED_RESULT": 0.192}
{"CPD_SMILES": "Nc1[nH]nc2ccc(CN3C(=O)N(Cc4ccccc4)[C@H](Cc4ccccc4)[C@H](O)[C@@H](O)[C@H]3Cc3ccccc3)cc12", "OBSERVATION_TYPE": "IC90", "UNIT_NAME": "µM", "REPORTED_RESULT": 0.496}
{"CPD_SMILES": "CCCCN1C(=O)N(Cc2ccc3[nH]nc(N)c3c2)[C@H](Cc2ccc(C)cc2)[C@H](O)[C@@H](O)[C@H]1Cc1ccc(C)cc1", "OBSERVATION_TYPE": "IC90", "UNIT_NAME": "µM", "REPORTED_RESULT": 0.42}
{"CPD_SMILES": "CCCCN1C(=O)N(Cc2ccc3[nH]nc(N)c3c2)[C@H](Cc2ccccc2)[C@H](O)[C@@H](O)[C@H]1Cc1ccccc1", "OBSERVATION_TYPE": "IC90", "UNIT_NAME": "µM", "REPORTED_RESULT": 0.952}

Recorded IC90 for Cc1cc(C)cc(C[C@@H]2[C@H](O)[C@@H](O)[C@@H](Cc3cc(C)cc(C)c3)N(Cc3ccc4[nH]nc(N)c4c3)C(=O)N2Cc2ccccc2)c1 , please?
0.35

Recorded IC90 for CCc1ccc(C[C@@H]2[C@H](O)[C@@H](O)[C@@H](Cc3ccc(CC)cc3)N(Cc3ccc4[nH]nc(N)c4c3)C(=O)N2Cc2ccccc2)cc1 , please?
0.247

Recorded IC90 for CCCCN1C(=O)N(Cc2ccc3[nH]nc(N)c3c2)[C@H](Cc2cccc(C)c2)[C@H](O)[C@@H](O)[C@H]1Cc1cccc(C)c1 , please?
0.775

###

SYSTEM: Human immunodeficiency virus type 1 protease (Human immunodeficiency virus 1)
OBSERVATION_TYPE: Ki
The answer consists of two parts: a number and, after it, its unit.

{"CPD_SMILES": "CCCCN1C(=O)N(Cc2ccc3[nH]nc(N)c3c2)[C@H](Cc2cc(C)cc(C)c2)[C@H](O)[C@@H](O)[C@H]1Cc1cc(C)cc(C)c1", "Ki": "0.19 nM"}
{"CPD_SMILES": "Cc1cc(C)cc(C[C@@H]2[C@H](O)[C@@H](O)[C@@H](Cc3cc(C)cc(C)c3)N(Cc3ccc4[nH]nc(N)c4c3)C(=O)N2Cc2ccccc2)c1", "Ki": "0.2 nM"}
{"CPD_SMILES": "CCc1ccc(C[C@@H]2[C@H](O)[C@@H](O)[C@@H](Cc3ccc(CC)cc3)N(Cc3ccc4[nH]nc(N)c4c3)C(=O)N2Cc2ccccc2)cc1", "Ki": "0.072 nM"}
{"CPD_SMILES": "CCCCN1C(=O)N(Cc2ccc3[nH]nc(N)c3c2)[C@H](Cc2ccc(C)cc2)[C@H](O)[C@@H](O)[C@H]1Cc1ccc(C)cc1", "Ki": "0.037 nM"}
{"CPD_SMILES": "CCCCN1C(=O)N(Cc2ccc3[nH]nc(N)c3c2)[C@H](Cc2cccc(C)c2)[C@H](O)[C@@H](O)[C@H]1Cc1cccc(C)c1", "Ki": "0.045 nM"}

Value wanted: Ki (Human immunodeficiency virus type 1 protease (Human immunodeficiency virus 1)) of entry CCCCN1C(=O)N(Cc2ccc3[nH]nc(N)c3c2)[C@H](Cc2ccc(CC)cc2)[C@H](O)[C@@H](O)[C@H]1Cc1ccc(CC)cc1
0.094 nM

Value wanted: Ki (Human immunodeficiency virus type 1 protease (Human immunodeficiency virus 1)) of entry CCCCN1C(=O)N(Cc2ccc3[nH]nc(N)c3c2)[C@H](Cc2ccccc2)[C@H](O)[C@@H](O)[C@H]1Cc1ccccc1
0.021 nM

Value wanted: Ki (Human immunodeficiency virus type 1 protease (Human immunodeficiency virus 1)) of entry Cc1cccc(C[C@@H]2[C@H](O)[C@@H](O)[C@@H](Cc3cccc(C)c3)N(Cc3ccc4[nH]nc(N)c4c3)C(=O)N2Cc2ccccc2)c1
0.062 nM

Value wanted: Ki (Human immunodeficiency virus type 1 protease (Human immunodeficiency virus 1)) of entry Cc1ccc(C[C@@H]2[C@H](O)[C@@H](O)[C@@H](Cc3ccc(C)cc3)N(Cc3ccc4[nH]nc(N)c4c3)C(=O)N2Cc2ccccc2)cc1
0.047 nM
